Origin of the recorded values: paper PMC3660563

- system: human GPR119 (Homo sapiens, UniProt Q8TDV5)
- Construct: expressed in transfected cells
- protocol.text: cAMP accumulation assay (HTRF) in HEK293-hGPR119 cells
- Type: cell-based
- measurement.parameters: in presence of MW1219 1 μM; read-out: EC50 of OEA
quantity.measured: EC50

Query CCCCCCCC/C=C\CCCCCCCC(=O)NCCO [OEA, oleoylethanolamide] yields EC50 of 1830 nM

* * *

- system: human GPR119 (Homo sapiens)
- Construct: expressed in transfected cells
- protocol.text: cAMP accumulation assay (HTRF) in HEK293-hGPR119 cells
- Format: cell-based
- measurement.parameters: MW1219 0 μM (Table S3); read-out: EC50 of OEA
- Procedure: HEK293 cells stably transfected with a human GPR119 vector and a cAMP response element-driven luciferase reporter plasmid (HEK293-hGPR119 cells) and HEK293 cells transfected only with a cAMP response element-driven luciferase reporter plasmid (control HEK293 cells) were cultured in Dulbecco’s modified Eagle medium (DMEM) (Invitrogen, Carlsbad, CA, USA) supplemented with 10% fetal bovine serum (FBS), 4.5 g/l glucose, 100 units/ml penicillin and 100 µg/ml streptomycin at 37°C in 5% CO2. […]
quantity.measured: pEC50
Reminder that pEC50 is minus the log10 of a molar concentration.

Query CCCCCCCC/C=C\CCCCCCCC(=O)NCCO [OEA, oleoylethanolamide] yields pEC50 of 5.77

* * *

- system: human GPR119 (Homo sapiens, UniProt Q8TDV5)
- Construct: expressed in transfected cells
- protocol.text: Reporter gene assay (CRE-luciferase) in HEK293-hGPR119 cells
- Type: cell-based
- measurement.parameters: AR-231453 0 nM (Table S1); read-out: EC50 of OEA
quantity.measured: pEC50
Reminder that pEC50 is minus the log10 of a molar concentration.

Query CCCCCCCC/C=C\CCCCCCCC(=O)NCCO [OEA, oleoylethanolamide] yields pEC50 of 5.55

* * *

- system: human GPR119 (Homo sapiens, UniProt Q8TDV5)
- Construct: expressed in transfected cells
- Sequence (Q8TDV5 1-335): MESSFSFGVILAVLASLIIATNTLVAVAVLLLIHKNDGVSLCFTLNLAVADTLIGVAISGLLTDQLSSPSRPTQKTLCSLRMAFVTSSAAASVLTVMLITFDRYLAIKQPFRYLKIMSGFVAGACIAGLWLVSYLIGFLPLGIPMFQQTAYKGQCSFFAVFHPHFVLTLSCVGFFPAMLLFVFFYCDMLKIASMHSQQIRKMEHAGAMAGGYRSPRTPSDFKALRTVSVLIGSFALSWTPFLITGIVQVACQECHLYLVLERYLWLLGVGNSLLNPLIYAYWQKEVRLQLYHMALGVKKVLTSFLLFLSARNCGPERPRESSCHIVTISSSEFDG
- protocol.text: Reporter gene assay (CRE-luciferase) in HEK293-hGPR119 cells
- Assay type: cell-based
- measurement.parameters: in presence of MW1219 1 μM; read-out: EC50 of OEA
quantity.measured: pEC50
Reminder that pEC50 is minus the log10 of a molar concentration.

Query CCCCCCCC/C=C\CCCCCCCC(=O)NCCO [OEA, oleoylethanolamide] yields pEC50 of 5.51

* * *

- system: human GPR119 (Homo sapiens, UniProt Q8TDV5)
- Construct: expressed in transfected cells
- Sequence (Q8TDV5 1-335): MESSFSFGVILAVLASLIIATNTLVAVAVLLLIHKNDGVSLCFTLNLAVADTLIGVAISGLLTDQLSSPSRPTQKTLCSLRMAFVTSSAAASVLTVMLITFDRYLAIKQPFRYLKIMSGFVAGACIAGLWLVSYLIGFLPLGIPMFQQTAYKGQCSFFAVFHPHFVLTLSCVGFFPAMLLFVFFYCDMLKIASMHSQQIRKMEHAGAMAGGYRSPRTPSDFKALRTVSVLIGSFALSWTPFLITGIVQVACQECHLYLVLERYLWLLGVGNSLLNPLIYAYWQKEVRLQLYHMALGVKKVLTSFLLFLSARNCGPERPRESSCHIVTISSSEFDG
- protocol.text: Reporter gene assay (CRE-luciferase) in HEK293-hGPR119 cells
- Assay type: cell-based
- measurement.parameters: in presence of MW1219 10 μM; read-out: EC50 of OEA
quantity.measured: pEC50
Reminder that pEC50 is minus the log10 of a molar concentration.

Query CCCCCCCC/C=C\CCCCCCCC(=O)NCCO [OEA, oleoylethanolamide] yields pEC50 of 5.59

* * *

- system: human GPR119 (Homo sapiens, UniProt Q8TDV5)
- Construct: expressed in transfected cells
- protocol.text: cAMP accumulation assay (HTRF) in HEK293-hGPR119 cells
- Format: cell-based
- measurement.parameters: OEA 0 μM (Table S2); read-out: EC50 of AR-231453
quantity.measured: pEC50
Reminder that pEC50 is minus the log10 of a molar concentration.

Query CC(C)c1noc(C2CCN(c3ncnc(Nc4ccc(S(C)(=O)=O)cc4F)c3[N+](=O)[O-])CC2)n1 [AR-231453] yields pEC50 of 8.92
